Answer each item with its documented viability, T/C.
test system: 991263-137-R1-J2-PDC complex spheroid viability; test: Anticancer human tumor 991263-137-R1-J2-PDC patient-derived colon adenocarcinoma cell line growth inhibition [POLQ]; details: second compound 0.316 µM; first compound 1 µM; stronger effect = lower value
Answer in %, number only, no unit symbol.

What measured viability, T/C goes with CC1COCCN1c1cc(C2(O)CC3CCC(C2)O3)c2cnn(-c3ccn[nH]3)c2n1 (stereo not drawn) + Cc1cccc(N(C)C(=O)C2C(O)CCN2c2nc(C)cc(C(F)(F)F)c2C#N)c1 ?
59.2

What measured viability, T/C goes with O=C(c1cc(Cc2n[nH]c(=O)c3ccccc23)ccc1F)N1CCN(C(=O)C2CC2)CC1 + COC1C(OC(N)=O)C(O)C(Oc2ccc3c(O)c(NC(=O)c4ccc(O)c(CC=C(C)C)c4)c(=O)oc3c2C)OC1(C)C ?
92.5

What measured viability, T/C goes with COc1cc2cc(C(=O)CCC(=O)O)sc2cc1OC + COC1C(OC(N)=O)C(O)C(Oc2ccc3c(O)c(NC(=O)c4ccc(O)c(CC=C(C)C)c4)c(=O)oc3c2C)OC1(C)C ?
110

* * *

system: 991263-137-R1-J2-PDC complex spheroid viability; assay: Anticancer human tumor 991263-137-R1-J2-PDC cell line growth inhibition [POLQ]; conditions: second compound 0.316 µM; first compound 1 µM; stronger effect = lower value;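 further: spheroids exposed to compounds for 7 days before readout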;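 on viability, T/C: 100% = DMSO vehicle control viability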
Property: viability, T/C (%)
Answer in %, number only, no unit symbol.

What measured viability, T/C goes with CCCS(=O)(=O)Nc1ccc(F)c(C(=O)c2c[nH]c3ncc(-c4ccc(Cl)cc4)cc23)c1F + Nc1ccc(C#CCN(C(=O)Cc2ncc(C(F)(F)F)cc2C(F)(F)F)c2ccc(F)cc2)nn1 ?
98.7

What measured viability, T/C goes with COc1cccc2c1C(=O)c1c(O)c3c(c(O)c1C2=O)CC(O)(C(=O)CO)CC3OC1CC(N)C(O)C(C)O1 (stereo not given) + COC1C(OC(N)=O)C(O)C(Oc2ccc3c(O)c(NC(=O)c4ccc(O)c(CC=C(C)C)c4)c(=O)oc3c2C)OC1(C)C ?
55.4

What measured viability, T/C goes with CCc1c2c(nc3ccc(O)cc13)-c1cc3c(c(=O)n1C2)COC(=O)[C@]3(O)CC + COC1C(OC(N)=O)C(O)C(Oc2ccc3c(O)c(NC(=O)c4ccc(O)c(CC=C(C)C)c4)c(=O)oc3c2C)OC1(C)C ?
20.9

What measured viability, T/C goes with O=c1[nH]cc(F)c(=O)[nH]1 + COC1C(OC(N)=O)C(O)C(Oc2ccc3c(O)c(NC(=O)c4ccc(O)c(CC=C(C)C)c4)c(=O)oc3c2C)OC1(C)C ?
92.6

What measured viability, T/C goes with CNCc1ccc(-c2[nH]c3cc(F)cc4c3c2CCNC4=O)cc1 + COC1C(OC(N)=O)C(O)C(Oc2ccc3c(O)c(NC(=O)c4ccc(O)c(CC=C(C)C)c4)c(=O)oc3c2C)OC1(C)C ?
100

* * *

tested on: 991263-137-R1-J2-PDC complex spheroid viability; test: Anticancer human tumor 991263-137-R1-J2-PDC cell line growth inhibition [POLQ]; conditions: second compound 1 µM; first compound 0.0316 µM; stronger effect = lower value;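 further: spheroids exposed to compounds for 7 days before readout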;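 on viability, T/C: 100% = DMSO vehicle control viability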
Answer each item with its documented viability, T/C.
Answer in %, number only, no unit symbol.

What measured viability, T/C goes with CC(C)n1c(=O)n(C)c2cnc3cc(F)c(-c4ccc(OCCCN5CCCCC5)nc4)cc3c21 + Cc1cccc(N(C)C(=O)C2C(O)CCN2c2nc(C)cc(C(F)(F)F)c2C#N)c1 ?
92.1

What measured viability, T/C goes with CC1COCCN1c1cc(-c2ccnn2C)c2ccnc(-c3ccn[nH]3)c2n1 (stereo not drawn) + COC1C(OC(N)=O)C(O)C(Oc2ccc3c(O)c(NC(=O)c4ccc(O)c(CC=C(C)C)c4)c(=O)oc3c2C)OC1(C)C ?
89.6

What measured viability, T/C goes with COc1cccc(OCCCN)c1-c1cc(Nc2cnc(C#N)cn2)n[nH]1 + Cc1cccc(N(C)C(=O)C2C(O)CCN2c2nc(C)cc(C(F)(F)F)c2C#N)c1 ?
96.7

* * *

system: 991263-137-R1-J2-PDC complex spheroid viability; test: Anticancer human tumor 991263-137-R1-J2-PDC cell line growth inhibition [POLQ]; conditions: second compound 0.316 µM; first compound 0.1 µM; stronger effect = lower value;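 further: spheroids exposed to compounds for 7 days before readout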;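 on viability, T/C: 100% = DMSO vehicle control viability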
Answer each item with its documented viability, T/C.
Write the numeric value and append its unit.

Recorded viability, T/C for Nc1ccn(C2OC(CO)C(O)C2(F)F)c(=O)n1 (stereo not drawn) + COC1C(OC(N)=O)C(O)C(Oc2ccc3c(O)c(NC(=O)c4ccc(O)c(CC=C(C)C)c4)c(=O)oc3c2C)OC1(C)C with 991263-137-R1-J2-PDC complex spheroid viability, please?
70.8%

Recorded viability, T/C for O=C(Nc1ccc(O)c(NS(=O)(=O)c2ccc(F)cc2)c1)c1ccc(-c2ccccc2)cc1 + Cc1cccc(N(C)C(=O)C2C(O)CCN2c2nc(C)cc(C(F)(F)F)c2C#N)c1 with 991263-137-R1-J2-PDC complex spheroid viability, please?
97.5%

Recorded viability, T/C for CCc1cc2c(N3CCc4c(cc(Cn5ccnc5)cc4-c4cn(C)nc4C(F)(F)F)C3=O)ccnc2c(OC)n1 + COC1C(OC(N)=O)C(O)C(Oc2ccc3c(O)c(NC(=O)c4ccc(O)c(CC=C(C)C)c4)c(=O)oc3c2C)OC1(C)C with 991263-137-R1-J2-PDC complex spheroid viability, please?
108%

* * *

test system: 991263-137-R1-J2-PDC complex spheroid viability; test: Anticancer human tumor 991263-137-R1-J2-PDC cell line growth inhibition [POLQ]; conditions: second compound 0.1 µM; first compound 3.16 µM; stronger effect = lower value;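 further: spheroids exposed to compounds for 7 days before readout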;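 on viability, T/C: 100% = DMSO vehicle control viability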
Property: viability, T/C (%)
Answer in %, number only, no unit symbol.

What measured viability, T/C goes with C#Cc1c(F)ccc2cc(O)cc(-c3ncc4c(N5CC6CCC(C5)N6)nc(OCC56CCCN5CC(F)C6)nc4c3F)c12 (stereo not given) + Cc1cccc(N(C)C(=O)C2C(O)CCN2c2nc(C)cc(C(F)(F)F)c2C#N)c1 ?
106

What measured viability, T/C goes with CC1COCCN1c1cc(C2(O)CC3CCC(C2)O3)c2cnn(-c3ccn[nH]3)c2n1 (stereo not given) + Nc1ccc(C#CCN(C(=O)Cc2ncc(C(F)(F)F)cc2C(F)(F)F)c2ccc(F)cc2)nn1 ?
43.2

What measured viability, T/C goes with CC(C)n1c(=O)n(C)c2cnc3cc(F)c(-c4ccc(OCCCN5CCCCC5)nc4)cc3c21 + Nc1ccc(C#CCN(C(=O)Cc2ncc(C(F)(F)F)cc2C(F)(F)F)c2ccc(F)cc2)nn1 ?
101

What measured viability, T/C goes with COc1ccc([C@@H](O)c2cc(-c3ncnc4cc(N5CCOCC5)ccc34)c(F)cc2Cl)nn1 + Cc1cccc(N(C)C(=O)C2C(O)CCN2c2nc(C)cc(C(F)(F)F)c2C#N)c1 ?
76.4

What measured viability, T/C goes with CC1COCCN1c1cc(C2(S(C)(=N)=O)CC2)nc(-c2ccnc3[nH]ccc23)n1 (stereo not given) + Nc1ccc(C#CCN(C(=O)Cc2ncc(C(F)(F)F)cc2C(F)(F)F)c2ccc(F)cc2)nn1 ?
108

What measured viability, T/C goes with CC(C)n1c(=O)n(C)c2cnc3cc(F)c(-c4ccc(OCCCN5CCCCC5)nc4)cc3c21 + Cc1cccc(N(C)C(=O)C2C(O)CCN2c2nc(C)cc(C(F)(F)F)c2C#N)c1 ?
74

What measured viability, T/C goes with O=C(Nc1ccc(O)c(NS(=O)(=O)c2ccc(F)cc2)c1)c1ccc(-c2ccccc2)cc1 + COC1C(OC(N)=O)C(O)C(Oc2ccc3c(O)c(NC(=O)c4ccc(O)c(CC=C(C)C)c4)c(=O)oc3c2C)OC1(C)C ?
110

What measured viability, T/C goes with CCCS(=O)(=O)Nc1ccc(F)c(C(=O)c2c[nH]c3ncc(-c4ccc(Cl)cc4)cc23)c1F + COC1C(OC(N)=O)C(O)C(Oc2ccc3c(O)c(NC(=O)c4ccc(O)c(CC=C(C)C)c4)c(=O)oc3c2C)OC1(C)C ?
129

What measured viability, T/C goes with CC(C)n1c(=O)n(C)c2cnc3cc(F)c(-c4ccc(OCCCN5CCCCC5)nc4)cc3c21 + COC1C(OC(N)=O)C(O)C(Oc2ccc3c(O)c(NC(=O)c4ccc(O)c(CC=C(C)C)c4)c(=O)oc3c2C)OC1(C)C ?
102

What measured viability, T/C goes with CC1COCCN1c1cc(C2(S(C)(=N)=O)CC2)nc(-c2ccnc3[nH]ccc23)n1 (stereo not given) + COC1C(OC(N)=O)C(O)C(Oc2ccc3c(O)c(NC(=O)c4ccc(O)c(CC=C(C)C)c4)c(=O)oc3c2C)OC1(C)C ?
97.6

* * *

Answer each item with its documented IC50.
test system: 991263-137-R1-J2-PDC complex spheroid viability; assay: Anticancer human tumor 991263-137-R1-J2-PDC cell line growth inhibition [POLQ]; details: curve of first compound; second compound 1 µM;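 further: spheroids exposed to compounds for 7 days before readout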

What measured IC50 goes with Cn1ncnc1[C@H]1c2n[nH]c(=O)c3cc(F)cc(c23)N[C@@H]1c1ccc(F)cc1 + Nc1ccc(C#CCN(C(=O)Cc2ncc(C(F)(F)F)cc2C(F)(F)F)c2ccc(F)cc2)nn1 ?
> 100 nM

What measured IC50 goes with Nc1ccn(C2OC(CO)C(O)C2(F)F)c(=O)n1 (stereo not drawn) + Cc1cccc(N(C)C(=O)C2C(O)CCN2c2nc(C)cc(C(F)(F)F)c2C#N)c1 ?
1910 nM

What measured IC50 goes with O=c1[nH]cc(F)c(=O)[nH]1 + COC1C(OC(N)=O)C(O)C(Oc2ccc3c(O)c(NC(=O)c4ccc(O)c(CC=C(C)C)c4)c(=O)oc3c2C)OC1(C)C ?
> 10000 nM
